Reference for the values: patent US9714238B2

TARGET_OR_SYSTEM: EP4 (Homo sapiens, UniProt P35408)
Sequence (P35408 whole entry): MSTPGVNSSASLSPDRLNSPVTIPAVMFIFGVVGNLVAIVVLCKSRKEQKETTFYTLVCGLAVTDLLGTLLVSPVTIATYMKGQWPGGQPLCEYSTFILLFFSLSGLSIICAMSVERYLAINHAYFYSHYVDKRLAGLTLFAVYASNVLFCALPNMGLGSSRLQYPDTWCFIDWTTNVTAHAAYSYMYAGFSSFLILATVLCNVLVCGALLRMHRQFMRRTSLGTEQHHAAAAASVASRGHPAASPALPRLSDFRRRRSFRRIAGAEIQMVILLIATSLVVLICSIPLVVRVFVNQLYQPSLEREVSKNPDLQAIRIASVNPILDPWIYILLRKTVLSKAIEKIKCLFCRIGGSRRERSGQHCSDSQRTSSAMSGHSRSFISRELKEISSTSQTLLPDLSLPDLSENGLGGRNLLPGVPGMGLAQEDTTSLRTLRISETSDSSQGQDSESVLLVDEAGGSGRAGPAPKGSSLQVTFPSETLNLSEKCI
ASSAY_SUMMARY: EP4 flipr functional assay
Assay type: cell-based
EXPERIMENTAL_CONDITIONS: unit inferred
ASSAY_READOUT: EC50 (µM)

Suppose we examine the molecule CCCc1ccc2c(C(=O)Nc3cccc(OCC(=O)O)c3)cccc2c1 ; what EC50 value has been reported?
7.13

1: CCCCCCc1cnc2c(C(=O)Nc3cccc(OCC(=O)O)c3)cccc2c1
2: CCCCCCc1ccc2c(C(=O)NCCc3ccc(C(=O)O)s3)cccc2c1
Endpoint returns the identifier whose EC50 is numerically larger, either 1 or 2 . I would appreciate it if you answered with the label of your choice.
2

====

TARGET_OR_SYSTEM: UniProt:P43115
Sequence (P43115 whole entry): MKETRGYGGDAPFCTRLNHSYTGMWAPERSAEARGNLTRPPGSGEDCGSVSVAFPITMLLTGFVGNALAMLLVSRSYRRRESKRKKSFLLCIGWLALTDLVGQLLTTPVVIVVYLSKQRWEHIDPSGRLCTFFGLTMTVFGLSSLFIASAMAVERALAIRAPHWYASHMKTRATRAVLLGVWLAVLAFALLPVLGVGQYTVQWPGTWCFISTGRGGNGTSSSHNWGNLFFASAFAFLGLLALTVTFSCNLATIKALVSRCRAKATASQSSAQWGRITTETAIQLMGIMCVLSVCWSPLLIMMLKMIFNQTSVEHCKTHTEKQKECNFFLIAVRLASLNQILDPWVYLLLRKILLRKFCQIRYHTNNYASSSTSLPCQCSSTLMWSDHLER
ASSAY_SUMMARY: Other receptors functional activity, hEP3A
ASSAY_READOUT: pEC50
Schema: pEC50 number; meaning minus log10 of the concentration expressed in molar units.

Param readout = pEC50; param system = UniProt:P43115; param query = CCCCCCc1cnc2c(C(=O)Nc3cccc(OCC(=O)O)c3)cccc2c1 ; response: value
4.88

====

TARGET_OR_SYSTEM: EP2 (Homo sapiens)
Sequence (P43116 whole entry): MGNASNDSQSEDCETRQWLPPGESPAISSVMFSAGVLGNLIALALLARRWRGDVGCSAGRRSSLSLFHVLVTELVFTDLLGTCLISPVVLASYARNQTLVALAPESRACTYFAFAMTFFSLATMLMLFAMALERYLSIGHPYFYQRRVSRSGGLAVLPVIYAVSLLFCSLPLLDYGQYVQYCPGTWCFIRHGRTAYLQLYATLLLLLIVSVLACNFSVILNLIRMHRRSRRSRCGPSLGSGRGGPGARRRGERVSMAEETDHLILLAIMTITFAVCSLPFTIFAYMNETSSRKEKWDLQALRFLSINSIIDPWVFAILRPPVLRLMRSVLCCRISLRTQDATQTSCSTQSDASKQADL
ASSAY_SUMMARY: EP2 cAMP functional assay
EXPERIMENTAL_CONDITIONS: unit inferred
pEC50: −log10 of the molar value.
ASSAY_READOUT: pEC50

Suppose we examine the molecule CCCCCCc1ccc2c(C(=O)NCCc3ccc(C(=O)O)s3)cccc2c1 ; what pEC50 value has been reported?
7.60

I: CCCC(O)c1ccc2c(C(=O)Nc3cccc(OCC(=O)O)c3)cccc2c1 (stereo not drawn)
II: CCCCc1cnc2c(C(=O)Nc3cccc(OCC(=O)O)c3)cccc2c1
Looking at recorded values for pEC50, does I or II come in lower? I would appreciate it if you answered with the label of your choice.
II
